Source of measurements: ChEMBL document CHEMBL4330096

Molecular target: UniProtKB P41240
Sequence (P41240 2-450 limits assumed): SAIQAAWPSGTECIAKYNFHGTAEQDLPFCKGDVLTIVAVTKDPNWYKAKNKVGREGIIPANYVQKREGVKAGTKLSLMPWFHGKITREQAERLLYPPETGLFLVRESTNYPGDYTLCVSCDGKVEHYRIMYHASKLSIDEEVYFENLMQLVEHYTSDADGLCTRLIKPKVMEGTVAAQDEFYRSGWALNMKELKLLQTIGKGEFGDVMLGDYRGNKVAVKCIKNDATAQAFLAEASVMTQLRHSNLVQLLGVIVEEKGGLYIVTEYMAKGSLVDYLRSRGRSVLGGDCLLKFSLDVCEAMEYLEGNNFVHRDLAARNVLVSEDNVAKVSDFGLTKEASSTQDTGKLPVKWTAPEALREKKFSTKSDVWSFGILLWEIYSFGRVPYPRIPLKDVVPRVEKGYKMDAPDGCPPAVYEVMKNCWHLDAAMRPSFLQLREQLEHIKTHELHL
Assay: Inhibition of CSK (unknown origin) at 10 uM relative to control
readout.label: inhibition (%)
The reply should be a number in %, with the unit left off.

Worked examples follow.
>>> result_value("Cc1n[nH]c2ccnc(Nc3ccccc3F)c12")
8
>>> result_value("Cc1n[nH]c2ccnc(OC3CCCCC3)c12")
20
>>> result_value("Cc1n[nH]c2ccnc(Nc3ccc4ncsc4c3)c12")
0

Consider now this further compound.
Record request: inhibition value, item Cc1n[nH]c2ccnc(NC3CCCCC3)c12
0

---

Molecular target: Ribosomal protein S6 kinase beta-1 (Homo sapiens)
Experiment: Inhibition of S6K1 (unknown origin) at 10 uM relative to control
readout.label: inhibition (%)
The reply should be a number in %, with the unit left off.

Record request: inhibition value, item Cc1n[nH]c2ccnc(OC3CCCCC3)c12
78

Record request: inhibition value, item Cc1n[nH]c2ccnc(Nc3ccc4ncsc4c3)c12
19

Record request: inhibition value, item Cc1n[nH]c2ccnc(NC3CCCCC3)c12
28

Record request: inhibition value, item Cc1n[nH]c2ccnc(Nc3ccccc3F)c12
36
